Quick reference: IC50 of the listed items.
- System: 953936-095-R-J2-PDC spheroids with HUVEC/MSC, viability
- test protocol: Anticancer human tumor 953936-095-R-J2-PDC patient-derived cervical squamous cell carcinoma cell line growth inhibition [PI3K]
- experimental conditions: curve of first compound; second compound 0.1 µM
Express the result in µM but write the number alone.

[
  {
    "molecule": "CCCS(=O)(=O)Nc1ccc(F)c(C(=O)c2c[nH]c3ncc(-c4ccc(Cl)cc4)cc23)c1F + Cc1nc(NC(=O)N2CCCC2C(N)=O)sc1-c1ccnc(C(C)(C)C(F)(F)F)c1",
    "unit of measurement": "µM",
    "IC50": 4.88
  }
]

// moving on: another record for IC50
Query :: Recorded IC50 for CNC(=O)c1ccc(N2C(=S)N(c3ccc(C#N)c(C(F)(F)F)c3)C(=O)C2(C)C)cc1F + CC(Nc1ccc2c(c1)OCCn1cc(N3C(=O)OCC3C(F)F)nc1-2)C(N)=O , please?
Result :: 4.15

----------
- Test system: 953936-095-R-J2-PDC spheroids with HUVEC/MSC, viability
- test protocol: Anticancer human tumor 953936-095-R-J2-PDC cell line growth inhibition [PI3K];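 note: spheroids exposed to compounds for seven days before read-out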
- experimental conditions: second compound 3.16 µM; first compound 0.00316 µM; stronger effect = lower value
Quick reference: viability, T/C of the listed items.
Express the result in % but write the number alone.

[
  {
    "compound": "CCN1CCN(Cc2ccc(Nc3ncc(F)c(-c4cc(F)c5nc(C)n(C(C)C)c5c4)n3)nc2)CC1 + Cc1nc(NC(=O)N2CCCC2C(N)=O)sc1-c1ccnc(C(C)(C)C(F)(F)F)c1",
    "recorded result": 26.6
  },
  {
    "compound": "CC(=O)c1c(C)c2cnc(Nc3ccc(N4CCNCC4)cn3)nc2n(C2CCCC2)c1=O + Cc1nc(NC(=O)N2CCCC2C(N)=O)sc1-c1ccnc(C(C)(C)C(F)(F)F)c1",
    "recorded result": 27.3
  },
  {
    "compound": "CC(C)n1nc(-c2ccc3oc(N)nc3c2)c2c(N)ncnc21 + Cc1nc(NC(=O)N2CCCC2C(N)=O)sc1-c1ccnc(C(C)(C)C(F)(F)F)c1",
    "recorded result": 21.5
  },
  {
    "compound": "Cn1ncnc1[C@H]1c2n[nH]c(=O)c3cc(F)cc(c23)N[C@@H]1c1ccc(F)cc1 + CC(Nc1ncnc2nc[nH]c12)c1cc2cccc(Cl)c2c(=O)n1-c1ccccc1",
    "recorded result": 79.8
  }
]

// moving on: another record for viability, T/C
Query :: Notebook: pull reported viability, T/C for 953936-095-R-J2-PDC spheroids with HUVEC/MSC, viability, entry CCN1CCN(Cc2ccc(Nc3ncc(F)c(-c4cc(F)c5nc(C)n(C(C)C)c5c4)n3)nc2)CC1 + CC(Nc1ncnc2nc[nH]c12)c1cc2cccc(Cl)c2c(=O)n1-c1ccccc1
Result :: 87.8

----------
Quick reference: IC50 of the listed items.
- System: 953936-095-R-J2-PDC spheroids with HUVEC/MSC, viability
- test protocol: Anticancer human tumor 953936-095-R-J2-PDC cell line growth inhibition [PI3K];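 note: spheroids exposed to compounds for seven days before read-out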
- experimental conditions: curve of first compound; second compound 1 µM

[
  {
    "compound": "CC(C)n1nc(-c2ccc3oc(N)nc3c2)c2c(N)ncnc21 + CC(Nc1ncnc2nc[nH]c12)c1cc2cccc(Cl)c2c(=O)n1-c1ccccc1",
    "target desc": "953936-095-R-J2-PDC spheroids with HUVEC/MSC, viability",
    "IC50": "30.7 nM"
  },
  {
    "compound": "CC1(C)CCC(CN2CCN(c3ccc(C(=O)NS(=O)(=O)c4ccc(NCC5CCOCC5)c([N+](=O)[O-])c4)c(Oc4cnc5[nH]ccc5c4)c3)CC2)=C(c2ccc(Cl)cc2)C1 + CC(Nc1ncnc2nc[nH]c12)c1cc2cccc(Cl)c2c(=O)n1-c1ccccc1",
    "target desc": "953936-095-R-J2-PDC spheroids with HUVEC/MSC, viability",
    "IC50": "7160 nM"
  }
]

Query :: Recorded IC50 for Cn1ncnc1[C@H]1c2n[nH]c(=O)c3cc(F)cc(c23)N[C@@H]1c1ccc(F)cc1 + COc1c(OCCCN2CCOCC2)ccc2c3n(c(=NC(=O)c4cnc(N)nc4)nc12)CCN3 , please?
Result :: < 0.316 nM

Query :: What about CC(=O)c1c(C)c2cnc(Nc3ccc(N4CCNCC4)cn3)nc2n(C2CCCC2)c1=O + CC(Nc1ncnc2nc[nH]c12)c1cc2cccc(Cl)c2c(=O)n1-c1ccccc1 ?
Result :: > 100 nM
